Recorded IC50 for the following binders
Target: HIV-1 reverse transcriptase (HXB2, group M subtype B) (Human immunodeficiency virus 1, UniProt P04585 SEQ:1-560)
Assay: inhibition; DDDP, K+ buffer
Details: tags: expressed in E. coli; hairpin + G4

binder	IC50 [nM]
CGTGATTAGCGATACTCACGTTGGGTGGGTGGGTGGG (ssDNA) [S1]	59
CGCCTGATTAGCGATACTCAGGCGTTGGGCGGGCGGGCGGG (ssDNA) [R1C]	26
CGGATTAGCGATACTCCGTTGGGTGGGTGGGTGGG (ssDNA) [S2]	110
R8T (ssDNA) DNA: CGCCTGATTAGCGATACTCAGGCGTTGGGTTTTTTTTGGGTTTTTTTTGGGTTTTTTTTGGG	20
CGCCTGATTAGCGATACTCAGGCGTTGGGTTGGGTTGGGTTGGG (ssDNA) [R2T]	13
CCGGACTCATAGCGATTAGTCCGGTTGGGTGGGTGGGTGGG (ssDNA) [Srevstem]	26
CGCCTGATTAGCGATACTCAGGCGTTGGGAGGGAGGGAGGG (ssDNA) [R1A]	18
